Please respond with reported caspase 0.3 μM for every item in the list.
system: Caspase 3; experiment: Caspase 3 detection assay in SJSA1 cells; type: cell-based; settings: 0.3 μM, SJSA1, 48 h, Caspase 3 activation over DMSO-treated cells
Bridge positions count the residues as written; N and C are the ends. Square brackets hold non-standard residues; d marks the D form. Peptide text beside a SMILES is read from it. R8 = C=CCCCCCC[C@@](C)(N)C(=O)O; S5 = C=CCCC[C@](C)(N)C(=O)O; Aib = CC(C)(N)C(=O)O
Answers are plain numbers.

CC[C@H](C)[C@H](NC(=O)[C@H](C)NC(=O)[C@H](C)NC(=O)[C@]1(C)CCCC=CCCCCCC[C@@](C)(NC(=O)[C@H](Cc2ccccc2)NC(=O)[C@@H](NC(=O)[C@H](CC(C)C)NC(C)=O)[C@@H](C)O)C(=O)N[C@@H](C)C(=O)N[C@@H](Cc2ccc(O)cc2)C(=O)N[C@@H](Cc2c[nH]c3ccccc23)C(=O)N[C@@H](C)C(=O)N[C@@H](CCC(N)=O)C(=O)N[C@@H](CC(C)C)C(=O)N1)C(=O)N[C@@H](C)C(N)=O (single isomer, unassigned)    1

**Query** Please give the measured caspase 0.3 μM for this compound: CC(=O)N[C@@H](CC(C)C)C(=O)N[C@H](C(=O)N[C@@H](Cc1ccccc1)C(=O)N[C@]1(C)CCCCCCC=CCCC[C@@](C)(C(=O)N[C@@H](CO)C(=O)N[C@@H](C)C(=O)NC(C)(C)C(N)=O)NC(=O)[C@H](CC(C)C)NC(=O)[C@H](CCC(N)=O)NC(=O)[C@H](C)NC(=O)[C@H](Cc2c[nH]c3ccccc23)NC(=O)[C@H](Cc2ccc(O)cc2)NC(=O)[C@H](C)NC1=O)[C@@H](C)O [compound 10] (Ac-LTF[R8]AYWAQL[S5]SA[Aib]-NH2; staple 4-11)
**Result** 1

====

Please respond with reported 25 μM % Lysed cells (1 h LDH) for every item in the list.
system: SJSA-1 cells; assay: Cell lysis by peptidomimetic macrocycles (LDH release); assay type: cell-based; settings: 25 μM, SJSA-1, 1 h
Bridge positions count the residues as written; N and C are the ends. Square brackets hold non-standard residues; d marks the D form. Peptide text beside a SMILES is read from it. R8 = C=CCCCCCC[C@@](C)(N)C(=O)O; hLeu = CC(C)CC[C@H](N)C(=O)O; S5 = C=CCCC[C@](C)(N)C(=O)O
Numbers only, in %.

Below is a list of compounds. For each, state its recorded 25 μM % Lysed cells (1 h LDH).
1. CC(=O)N[C@@H](CC(C)C)C(=O)N[C@H](C(=O)N[C@@H](Cc1ccccc1)C(=O)N[C@]1(C)CCCCCCC=CCCC[C@@](C)(C(=O)N[C@@H](C)C(=O)N[C@@H](C)C(=O)N[C@@H](C)C(=O)N[C@@H](C)C(=O)N[C@H](C)C(N)=O)NC(=O)[C@H](CC(C)C)NC(=O)[C@H](CCC(N)=O)NC(=O)[C@H](C)NC(=O)[C@H](Cc2c[nH]c3ccccc23)NC(=O)[C@H](Cc2ccc(O)cc2)NC(=O)[C@H](C)NC1=O)[C@@H](C)O
2. CC(=O)N[C@@H](CC(C)C)C(=O)N[C@H](C(=O)N[C@@H](Cc1ccccc1)C(=O)N[C@]1(C)CCCCCCC=CCCC[C@@](C)(C(=O)N[C@@H](CO)C(=O)N[C@@H](C)C(=O)N[C@@H](C)C(N)=O)NC(=O)[C@H](C2CCCC2)NC(=O)[C@H](CCC(N)=O)NC(=O)[C@H](C)NC(=O)[C@H](Cc2c[nH]c3ccccc23)NC(=O)[C@H](Cc2ccc(O)cc2)NC(=O)[C@H](CCC(=O)O)NC1=O)[C@@H](C)O (single isomer, unassigned) [compound 149]
3. CC(=O)N[C@@H](CC(C)C)C(=O)N[C@H](C(=O)N[C@@H](Cc1ccccc1)C(=O)N[C@]1(C)CCCCCCC=CCCC[C@@](C)(C(=O)N[C@@H](CO)C(=O)N[C@@H](C)C(=O)N[C@@H](CCC(C)C)C(N)=O)NC(=O)[C@H](CC(C)C)NC(=O)[C@H](CCC(N)=O)NC(=O)[C@H](C)NC(=O)[C@H](Cc2c[nH]c3ccccc23)NC(=O)[C@H](Cc2ccc(O)cc2)NC(=O)[C@H](C)NC1=O)[C@@H](C)O [compound 6] (Ac-LTF[R8]AYWAQL[S5]SA[hLeu]-NH2; staple 4-11)
4. CC(=O)N[C@@H](CC(C)C)C(=O)N[C@H](C(=O)N[C@@H](Cc1ccccc1)C(=O)N[C@]1(C)CCCCCC/C=C/CCC[C@@](C)(C(=O)N[C@@H](C)C(=O)N[C@@H](C)C(=O)N[C@@H](C)C(=O)N[C@@H](C)C(=O)N[C@@H](C)C(=O)N[C@H](C)C(N)=O)NC(=O)[C@H](CC2CCC2)NC(=O)[C@H](CCC(N)=O)NC(=O)[C@H](CO)NC(=O)[C@H](Cc2c[nH]c3ccccc23)NC(=O)[C@H](Cc2ccc(O)cc2)NC(=O)[C@H](CCC(=O)O)NC1=O)[C@@H](C)O

**Result**
1. 3.5
2. 7
3. 1
4. 0

**Query** Please give the measured 25 μM % Lysed cells (1 h LDH) for this compound: CC(=O)N[C@@H](CC(C)C)C(=O)N[C@H](C(=O)N[C@@H](Cc1ccccc1)C(=O)N[C@]1(C)CCCCCCC=CCCC[C@@](C)(C(=O)N[C@@H](C)C(=O)N[C@@H](C)C(=O)N[C@H](C(=O)N[C@H](C)C(N)=O)C(C)C)NC(=O)[C@H](CC(C)C)NC(=O)[C@H](CCC(N)=O)NC(=O)[C@H](C)NC(=O)[C@H](Cc2c[nH]c3ccccc23)NC(=O)[C@H](Cc2ccc(O)cc2)NC(=O)[C@H](CCC(=O)O)NC1=O)[C@@H](C)O (single isomer, unassigned)
**Result** 3
